Biological target: Concanavalin-A (Canavalia ensiformis) (UniProt P02866)
Sequence (P02866 whole entry, looked up): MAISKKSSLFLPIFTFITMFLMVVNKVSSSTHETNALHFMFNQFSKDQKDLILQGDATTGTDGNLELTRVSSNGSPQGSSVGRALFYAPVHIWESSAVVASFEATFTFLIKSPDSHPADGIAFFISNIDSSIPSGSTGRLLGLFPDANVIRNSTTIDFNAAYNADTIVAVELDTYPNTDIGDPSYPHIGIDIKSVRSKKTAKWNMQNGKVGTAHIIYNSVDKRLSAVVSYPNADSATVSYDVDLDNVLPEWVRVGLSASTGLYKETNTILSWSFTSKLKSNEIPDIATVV
Assay: ConA small-molecule binders, primary screen, artefact control for SMM control protein annotation, biochemical, small-molecule microarray, Alexa647 label, 635 nm (AID 1127);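 also: z combines 667 nm emission intensity with signal-to-noise across three replicate slides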
Settings: ConA-A647 binding fluorescence, higher = more signal
Collected composite z-score values appear next to each entry.

Field: example entries. Status: answers known.
[
  {
    "molecule": "[N-]=[N+]=NCc1ccccc1C[C@]1(C(=O)N2CCCCC2)COC(c2ccc(OCCCO)cc2)=N1",
    "composite z-score": 0.984
  },
  {
    "molecule": "COc1ccc(C#Cc2ccc3c(c2)[C@]2(C(=O)N3)[C@H](c3ccccc3OCCO)N3[C@H](c4ccccc4)[C@H](c4ccccc4)OC(=O)[C@H]3[C@@H]2C(=O)NC[C@H](O)c2ccccc2)cc1",
    "composite z-score": 1.07
  },
  {
    "molecule": "COCCOC(=O)N1C(=O)[C@@]2(c3cc(C#CCC(C(=O)OC)C(=O)OC)ccc31)[C@H](C(=O)N1CCc3cc(OC)c(OC)cc3C1)[C@H]1C(=O)O[C@H](c3ccccc3)[C@H](c3ccccc3)N1[C@@H]2c1ccccc1OCCO",
    "composite z-score": 1.14
  },
  {
    "molecule": "C=C(COC)/C(=C/C[C@@H](OC(=O)c1ccncc1)c1ccccc1OCCO)c1cnc2ccccc2c1",
    "composite z-score": 1.22
  },
  {
    "molecule": "C#CCN(C(=O)OC(C)(C)C)[C@H](CO)c1ccccc1",
    "composite z-score": 0.0388
  },
  {
    "molecule": "CN1C(=O)C2C(C1=O)C1C=C(CCCO)C2C(C2CC2)N1C (configuration not stated)",
    "composite z-score": -1.39
  },
  {
    "molecule": "O=C1N(Cc2ccccc2)Cc2ccccc2C[C@@]12COC(c1ccc(OCCCO)cc1)=N2",
    "composite z-score": 0.864
  },
  {
    "molecule": "COC(=O)[C@@]1(Cc2ccc(F)cc2)[C@@H]2C(=CC(=O)[C@H]2CC(=O)C(=O)N2CCCC2)CN1C(=O)c1ccccc1",
    "composite z-score": 0.455
  }
]

Read off the recorded composite z-score for CN1C(=O)C2C=CC(C(O)c3ccc(I)cc3)N(N(c3ccccc3)c3ccccc3)C2C1=O (configuration not stated)
0.326

Specify reported composite z-score for the molecule shown: COc1cccc(C)c1NC(=O)O[C@H]1[C@H](OC(=O)Nc2ccc3c(c2)OCO3)[C@H](OC(=O)Nc2ccc3c(c2)OCO3)[C@@H](OC)O[C@@H]1CO
1.17

Using known records, supply composite z-score for COC(=O)[C@@]1(Cc2ccc(F)cc2)[C@H]2c3cc(C(=O)N4CCCC4)n(CCSCCO)c3C[C@H]2CN1C(=O)c1ccccc1
0.532

* * *

Assay: HepG2 cell viability effects, profiling panel, calcein-AM fluorescence, 48 h, basal (AID 1164); also: test concentration not given here
Conditions: higher = more signal
z-score: recorded values

Below are worked cases with known answers.
[
  {
    "molecule": "C[C@]12C(=O)N(CCO)[C@@H]3C(=O)N(c4ccc(Cl)cc4)CC=CC31O[C@@H]1/C=C\\CCCOC(=O)C12 (stereo partly drawn)",
    "data_value": 0.488
  },
  {
    "molecule": "COc1ccc([Si](C)(C)[C@@H]2[C@@H](CC(=O)N3Cc4ccccc4C[C@H]3CO)O[C@]3(C(=O)N(Cc4ccc(I)cc4)c4ccccc43)[C@H]2C)cc1",
    "data_value": -0.435
  }
]

The record that follows has no z-score shown yet.
Using the record for COc1cccc(C)c1NC(=O)O[C@H]1[C@H](OC(=O)Nc2ccc3c(c2)OCO3)[C@H](OC(=O)Nc2ccc3c(c2)OCO3)[C@@H](OC)O[C@@H]1CO , state its measured z-score.
-0.997
